Data credit: PubChem BioAssay (Tox21)

assay: Caspase-3/7 induction in HepG2 cells by small molecules, qHTS assay (AID 1346978); settings: HepG2 caspase-3/7 activation, Caspase-Glo luminescence, 17 h; series mostly up to 92.4 µM; further: nearly all actives have a fitted effect of over 15% in size
Inconclusive results are not listed. The source made the active and inactive calls. The call rests on the fitted dose curve; in most records, active means well fitted activation curve with a large enough effect in the repeat runs; inconclusive means weak or mixed curves; inactive means flat fitted curve, though single readings scatter.
readout: caspase activation

Observe how each entry below is paired with its result.
* COc1cc(CC(C)N)c(OC)cc1Br (stereo unspecified) | inactive
* O=C(O)c1cc(Cl)ccc1Cl | inactive
* C[C@H]1O[C@H](OC2[C@@H](O)[C@@H](O)C(O)[C@H](O)[C@H]2O)[C@@H](N)C[C@@H]1N=C(N)C(=O)O (stereo partly specified) | inactive
* CCC1(CC)C(=O)NC(=O)NC1=O | inactive
* C[C@]12CC[C@H]3[C@@H](CCC4=CC(=O)CC[C@@H]43)[C@@H]1CC[C@@H]2OC(=O)CCc1ccccc1 | inactive

Input COC1=CC(=O)O[C@@H](/C=C/c2ccc3c(c2)OCO3)C1 . Output caspase activation: inactive

Query O=C(O)COc1cc(Cl)c(Cl)cc1Cl yields caspase activation of inactive

The compound identified as CC[N+]1(C)CCCC(OC(=O)C(O)(c2ccccc2)c2ccccc2)C1 (stereo unspecified) registered its caspase activation at inactive

# caspase activation (compound: C[N+]1(CCC(C(N)=O)(c2ccccc2)c2ccccc2)CCCCC1 ) is inactive

Briefly, caspase activation measured for CCCCC(CC)CO[N+](=O)[O-] (stereo unspecified) : inactive

The compound listed as COc1ccccc1N1CCNCC1 has a reported caspase activation of inactive
